assay: Metabolic stability in ICR mouse feces assessed as compound remaining at 35 to 45 Mbq, iv measured at 30 mins by HPLC analysis; format: ADME, organism-based; conditions: faeces, read-out: Stability
reported_endpoint: remaining at 0.5 h (%)
Write the number in % without appending the unit.

* CN(C)c1ccc(OCc2ccc(OCC[18F])cc2)cc1 | 22.7

Query block: # query: remaining at 0.5 h of entry "CN(C)c1ccc(COc2ccc(OCC[18F])cc2)cc1"
Result block: 14.6

---

tested on: Intestine; assay: Biodistribution in iv dosed ICR mouse intestine assessed per organ measured at 2 mins; type: ADME, organism-based; conditions: in vivo
# Lookup of reported Drug uptake keyed by entry
Your answer should be a plain number; it is taken to be in %ID.

Look over these answered cases.
* CN(C)c1ccc(OCc2ccc(OCC[18F])cc2)cc1 | 5.49
* COc1ccc(COc2ccc(OCCOCCOCC[18F])cc2)cc1 | 6.3
* COc1ccc(OCc2ccc(OCC[18F])cc2)cc1 | 7.31

Query block: I have this molecule here, "CN(C)c1ccc(COc2ccc(OCC[18F])cc2)cc1" , and I need its recorded Drug uptake.
Result block: 5.52

Query block: Data request, read-out Drug uptake, for "COc1ccc(COc2ccc(OCC[18F])cc2)cc1"
Result block: 7.09

---

test system: Intestine; assay: Biodistribution in iv dosed ICR mouse intestine assessed per organ measured at 10 mins; format: ADME, organism-based; conditions: in vivo
Below is a list of entries, each paired with its recorded Drug uptake value.
API: value field is a number in %ID; no unit string.

Known results for molecules:
- COc1ccc(COc2ccc(OCCOCCOCC[18F])cc2)cc1: 6.18
- CN(C)c1ccc(COc2ccc(OCC[18F])cc2)cc1: 3.12
- COc1ccc(COc2ccc(OCC[18F])cc2)cc1: 4.41
- COc1ccc(OCc2ccc(OCC[18F])cc2)cc1: 4.83

Query block: // query Drug uptake value for entry "CN(C)c1ccc(OCc2ccc(OCC[18F])cc2)cc1"
Result block: 5.16

---

List of logD values.
test: Partition coefficient, log D of the compound; assay type: physicochemical; settings: octanol/water

Query block: Any idea what logD was measured for "COc1ccc(COc2ccc(OCCOCCOCC[18F])cc2)cc1" ?
Result block: 3.04

Query block: What does the data say about its logD? Entry: "CN(C)c1ccc(OCc2ccc(OCC[18F])cc2)cc1"
Result block: 2.75

Query block: Name the reported logD value associated with the compound "COc1ccc(COc2ccc(OCC[18F])cc2)cc1"
Result block: 3.65

Query block: Entry under review: "CN(C)c1ccc(COc2ccc(OCC[18F])cc2)cc1" . Reported logD?
Result block: 3.11

Query block: Item "COc1ccc(OCc2ccc(OCC[18F])cc2)cc1" has what recorded logD?
Result block: 3.05

---

assay: Metabolic stability in ICR mouse plasma assessed as compound remaining at 35 to 45 Mbq, iv measured at 30 mins by HPLC analysis; format: ADME, organism-based; conditions: read-out: Stability
reported_endpoint: remaining at 0.5 h (%)
Express the result in % but write the number alone.

Query block: If you can, please state the reported remaining at 0.5 h value of "CN(C)c1ccc(OCc2ccc(OCC[18F])cc2)cc1" .
Result block: 5.8

---

Observed pKi, system Amyloid-beta precursor protein (Homo sapiens).
Units for pKi: none; it is -log10 of a concentration expressed in mol/L.

Example entries and their recorded answers appear below.
• COc1ccc(COc2ccc(OCCOCCF)cc2)cc1 = 6.36
• CN(C)c1ccc(OCc2ccc(OCCF)cc2)cc1 = 7.68
• CN(C)c1ccc(COc2ccc(OCCF)cc2)cc1 = 7.59
• CN(C)c1ccc(COc2ccc(OCCOCCOCCF)cc2)cc1 = 6.45

In the following, a different compound is considered.
Query block: What pKi appears in the records for this compound with Amyloid-beta precursor protein (Homo sapiens)? CNc1ccc(/C=C/c2ccc(OCCOCCOCCF)nc2)cc1 [FLORBETAPIR]
Sequence (P05067 whole entry): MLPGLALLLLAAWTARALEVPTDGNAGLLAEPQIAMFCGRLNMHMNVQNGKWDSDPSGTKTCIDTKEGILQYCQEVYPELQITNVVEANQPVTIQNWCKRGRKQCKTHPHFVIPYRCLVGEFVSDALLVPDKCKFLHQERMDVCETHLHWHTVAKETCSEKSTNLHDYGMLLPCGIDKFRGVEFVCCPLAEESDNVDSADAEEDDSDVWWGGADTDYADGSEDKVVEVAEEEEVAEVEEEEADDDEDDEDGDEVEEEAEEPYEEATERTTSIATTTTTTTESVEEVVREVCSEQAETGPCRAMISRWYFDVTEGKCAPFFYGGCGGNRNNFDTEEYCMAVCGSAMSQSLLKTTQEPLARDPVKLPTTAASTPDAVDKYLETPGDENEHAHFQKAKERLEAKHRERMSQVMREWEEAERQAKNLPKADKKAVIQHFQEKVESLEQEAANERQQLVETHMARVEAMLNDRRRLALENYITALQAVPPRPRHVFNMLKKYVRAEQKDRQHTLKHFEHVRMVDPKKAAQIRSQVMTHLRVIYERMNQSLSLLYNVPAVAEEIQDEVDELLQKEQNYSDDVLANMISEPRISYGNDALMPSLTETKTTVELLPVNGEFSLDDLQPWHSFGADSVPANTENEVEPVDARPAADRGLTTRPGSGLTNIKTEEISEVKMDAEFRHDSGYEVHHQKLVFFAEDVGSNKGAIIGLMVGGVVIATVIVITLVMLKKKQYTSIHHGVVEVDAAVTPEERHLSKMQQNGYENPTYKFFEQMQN
Result block: 7.94

---

assay: Metabolic stability in ICR mouse plasma assessed as compound remaining at 35 to 45 Mbq, iv measured at 60 mins by HPLC analysis; type: ADME, organism-based; conditions: read-out: Stability
reported_endpoint: remaining at 1 h (%)
The response must be a number in % with no trailing unit.

Query block: Looking for the measured remaining at 1 h of "CN(C)c1ccc(OCc2ccc(OCC[18F])cc2)cc1" , can you help?
Result block: 5.1

---

test system: Stomach; test: Biodistribution in iv dosed ICR mouse stomach assessed per organ measured at 2 mins; format: ADME, organism-based; conditions: in vivo
# Lookup of reported Drug uptake keyed by entry
Only the number, expressed in %ID, is required.

Known Drug uptake results, listed for orientation:
* COc1ccc(COc2ccc(OCCOCCOCC[18F])cc2)cc1 | 1.53
* CN(C)c1ccc(OCc2ccc(OCC[18F])cc2)cc1 | 2.48
* COc1ccc(COc2ccc(OCC[18F])cc2)cc1 | 1.22
* COc1ccc(OCc2ccc(OCC[18F])cc2)cc1 | 1.32

// switching to the query molecule
Query block: Request the reported Drug uptake associated with "CN(C)c1ccc(COc2ccc(OCC[18F])cc2)cc1"
Result block: 0.92

---

Catalogue of remaining at 2 min readings, one per entry.
experiment: Metabolic stability in ICR mouse liver assessed as compound remaining at 35 to 45 Mbq, iv measured at 2 mins by HPLC analysis; format: ADME, organism-based; settings: read-out: Stability

* CN(C)c1ccc(COc2ccc(OCC[18F])cc2)cc1 | 22.6%

# evaluate next
Query block: May I ask what remaining at 2 min has been recorded for "CN(C)c1ccc(OCc2ccc(OCC[18F])cc2)cc1" ?
Result block: 63.5%

---

remaining at 1 h values for the molecules below.
assay: Metabolic stability in ICR mouse brain assessed as compound remaining at 35 to 45 Mbq, iv measured at 60 mins by HPLC analysis; type: ADME, organism-based; conditions: read-out: Stability
Could you give me the number in %? Just the number is fine.

• CN(C)c1ccc(COc2ccc(OCC[18F])cc2)cc1 = 16.7

// next item, remaining at 1 h requested
Query block: Return reported remaining at 1 h; argument: "CN(C)c1ccc(OCc2ccc(OCC[18F])cc2)cc1"
Result block: 14.8

---

Let's look at some compounds and their measured remaining at 2 min.
test: Metabolic stability in ICR mouse plasma assessed as compound remaining at 35 to 45 Mbq, iv measured at 2 mins by HPLC analysis; assay type: ADME, organism-based; conditions: read-out: Stability
Just the number please, in %, no unit attached.

• CN(C)c1ccc(OCc2ccc(OCC[18F])cc2)cc1 = 56.5

Next compound, please.
Query block: Data request, read-out remaining at 2 min, for "CN(C)c1ccc(COc2ccc(OCC[18F])cc2)cc1"
Result block: 10.8

---

Drug uptake values by entry
system: Stomach; test: Biodistribution in iv dosed ICR mouse stomach assessed per organ measured at 30 mins; format: ADME, organism-based; conditions: in vivo, 0.5 h
Please give a number only; it is taken to be in %ID.

See these solved cases before continuing.
* COc1ccc(OCc2ccc(OCC[18F])cc2)cc1 | 1.29
* COc1ccc(COc2ccc(OCCOCCOCC[18F])cc2)cc1 | 1.52
* CN(C)c1ccc(OCc2ccc(OCC[18F])cc2)cc1 | 4.69
* COc1ccc(COc2ccc(OCC[18F])cc2)cc1 | 0.78

// switching to the query compound
Query block: Recorded Drug uptake for "CN(C)c1ccc(COc2ccc(OCC[18F])cc2)cc1" , please?
Result block: 0.37

---

tested on: Intestine; assay: Biodistribution in iv dosed ICR mouse intestine assessed per organ measured at 60 mins; assay type: ADME, organism-based; conditions: in vivo, 1 h
Decide using Drug uptake alone. Strictly below 10 %ID: met. Equal to or above 10 %ID: not met.

Past entries and their recorded results:
* COc1ccc(COc2ccc(OCCOCCOCC[18F])cc2)cc1 | not met
* CN(C)c1ccc(OCc2ccc(OCC[18F])cc2)cc1 | met
* COc1ccc(OCc2ccc(OCC[18F])cc2)cc1 | not met
* CN(C)c1ccc(COc2ccc(OCC[18F])cc2)cc1 | met

Please look at the following molecule next.
Query block: is_below(Drug uptake, 10 %ID) for "COc1ccc(COc2ccc(OCC[18F])cc2)cc1" ?
Result block: not met

---

test system: Brain; assay: Biodistribution in iv dosed ICR mouse brain measured at 2 mins; type: ADME, organism-based; settings: in vivo
reported_endpoint: Drug uptake (% ID/g)
Respond numerically; units are % ID/g and should not be typed.

Query block: For the record "COc1ccc(COc2ccc(OCCOCCOCC[18F])cc2)cc1" , what value of Drug uptake is listed for Brain?
Result block: 9.71

---

Attribute: remaining at 1 h
assay: Metabolic stability in ICR mouse liver assessed as compound remaining at 35 to 45 Mbq, iv measured at 60 mins by HPLC analysis; assay type: ADME, organism-based; conditions: read-out: Stability
Only the number, expressed in %, is required.

• CN(C)c1ccc(COc2ccc(OCC[18F])cc2)cc1 = 10.6

The record that follows has no remaining at 1 h shown yet.
Query block: Given the entry "CN(C)c1ccc(OCc2ccc(OCC[18F])cc2)cc1" , report its measured remaining at 1 h.
Result block: 4.4
